Test system: Candida orthopsilosis
Assay: Antimicrobial activity against Candida orthopsilosis by broth microdilution method
Assay type: functional
Conditions: Lodderomyces orthopsilosis
*1 amine or outer side, *2 acyl side, *3 side chain or, on linkers, in order; H or OH if unused. Where a SMILES comes first, the peptide text is derived from it. Bridges are numbered along the chain shown (N, C = ends). [ ]: non-standard residue; d: D form. The star is where a group is joined. pTerphenylCO(4''-OnC5H11) = CCCCCOc1ccc(-c2ccc(-c3ccc(C(=O)*)cc3)cc2)cc1; Orn(4R-OH,5R-OH) = O=C([C@H](C[C@@H](O)[C@@H](O)N[*:3])N[*:1])[*:2]; hTyr(3S-OH,4S-OH) = N[C@H](C(=O)O)[C@H](O)[C@@H](O)c1ccc(O)cc1; Pro(3S-OH,4S-Me) = C[C@H]1CN[C@H](C(=O)O)[C@H]1O; Hyp = O=C(O)[C@@H]1C[C@@H](O)CN1
Measure Name: MIC90 (µg/mL)
Report the value in µg/mL with no unit label.

Endpoint output: MIC90 of CCCCCOc1ccc(-c2ccc(-c3ccc(C(=O)N[C@H]4C[C@@H](O)[C@@H](O)NC(=O)[C@@H]5[C@@H](O)[C@@H](C)CN5C(=O)[C@H]([C@@H](C)O)NC(=O)[C@H]([C@H](O)[C@@H](O)c5ccc(O)cc5)NC(=O)[C@@H]5C[C@@H](O)CN5C(=O)[C@H]([C@@H](C)O)NC4=O)cc3)cc2)cc1 [ANIDULAFUNGIN] ({pTerphenylCO(4''-OnC5H11)}-[Orn(4R-OH,5R-OH)]T[Hyp][hTyr(3S-OH,4S-OH)]T[Pro(3S-OH,4S-Me)]; lactam 1-C) . Value?
0.25

* * *

System: Acremonium sp.
Test: Antimicrobial activity against Acremonium sp.by broth microdilution method
Assay type: functional
*1 amine or outer side, *2 acyl side, *3 side chain or, on linkers, in order; H or OH if unused. Where a SMILES comes first, the peptide text is derived from it. Bridges are numbered along the chain shown (N, C = ends). [ ]: non-standard residue; d: D form. The star is where a group is joined. hTyr(3S-OH,4S-OH,3'-OSO3H) = N[C@H](C(=O)O)[C@H](O)[C@@H](O)c1ccc(O)c(OS(=O)(=O)O)c1; Orn(4R-OH,5R-OH) = O=C([C@H](C[C@@H](O)[C@@H](O)N[*:3])N[*:1])[*:2]; Pro(3S-OH,4S-Me) = C[C@H]1CN[C@H](C(=O)O)[C@H]1O; X1 = CCCCCOc1ccc(-c2cc(-c3ccc(C(=O)*)cc3)no2)cc1; Gln(3R-OH) = NC(=O)C[C@@H](O)[C@H](N)C(=O)O; Hyp = O=C(O)[C@@H]1C[C@@H](O)CN1
Examples of compounds with documented MIC90 follow.

CCCCCOc1ccc(-c2cc(-c3ccc(C(=O)N[C@H]4C[C@@H](O)[C@@H](O)NC(=O)[C@@H]5[C@@H](O)[C@@H](C)CN5C(=O)[C@H]([C@H](O)CC(N)=O)NC(=O)[C@H]([C@H](O)[C@@H](O)c5ccc(O)c(OS(=O)(=O)O)c5)NC(=O)[C@@H]5C[C@@H](O)CN5C(=O)[C@H]([C@@H](C)O)NC4=O)cc3)no2)cc1 [MICAFUNGIN] (X1-[Orn(4R-OH,5R-OH)]T[Hyp][hTyr(3S-OH,4S-OH,3'-OSO3H)][Gln(3R-OH)][Pro(3S-OH,4S-Me)]; lactam 1-C); 0.25 µg/mL
C[C@@H]1[C@H](O)[C@@H](C)/C=C/C=C/C=C/C=C/C=C/C=C/C=C/[C@H](O[C@@H]2O[C@H](C)[C@@H](O)[C@H](N)[C@@H]2O)C[C@@H]2O[C@](O)(C[C@@H](O)C[C@@H](O)[C@H](O)CC[C@@H](O)C[C@@H](O)CC(=O)O[C@H]1C)C[C@H](O)[C@H]2C(=O)O [AMPHOTERICIN B]; > 16 µg/mL
CCC(C)n1ncn(-c2ccc(N3CCN(c4ccc(OCC5COC(Cn6cncn6)(c6ccc(Cl)cc6Cl)O5)cc4)CC3)cc2)c1=O (stereo not given) [ITRACONAZOLE]; > 8 µg/mL
C[C@@H](c1ncncc1F)[C@](O)(Cn1cncn1)c1ccc(F)cc1F [VORICONAZOLE]; > 8 µg/mL

Endpoint output: MIC90 of CC[C@@H]([C@H](C)O)n1ncn(-c2ccc(N3CCN(c4ccc(OC[C@@H]5CO[C@@](Cn6cncn6)(c6ccc(F)cc6F)C5)cc4)CC3)cc2)c1=O [POSACONAZOLE] . Value?
> 16 µg/mL

* * *

Examples of molecules with documented log10 MIC50 follow.
System: Torulaspora delbrueckii
Assay: Antimicrobial activity against Candida coliculosa by broth microdilution method
Type: functional
# log10 transformed; quantity=MIC50; unit=µg/mL

CCC(C)n1ncn(-c2ccc(N3CCN(c4ccc(OCC5COC(Cn6cncn6)(c6ccc(Cl)cc6Cl)O5)cc4)CC3)cc2)c1=O (centres undefined) [ITRACONAZOLE]; -0.92
CC[C@@H]([C@H](C)O)n1ncn(-c2ccc(N3CCN(c4ccc(OC[C@@H]5CO[C@@](Cn6cncn6)(c6ccc(F)cc6F)C5)cc4)CC3)cc2)c1=O [POSACONAZOLE]; -1.52

Endpoint output: log10 MIC50 of OC(Cn1cncn1)(Cn1cncn1)c1ccc(F)cc1F [FLUCONAZOLE] . Value?
0.90

Endpoint output: log10 MIC50 of C[C@@H](c1ncncc1F)[C@](O)(Cn1cncn1)c1ccc(F)cc1F [VORICONAZOLE] . Value?
-0.92

* * *

Test system: Trichosporon jirovecii
Test: Antimicrobial activity against Trichosporon jirovecii by broth microdilution method
Format: functional
Conditions: Cutaneotrichosporon jirovecii
*1 amine or outer side, *2 acyl side, *3 side chain or, on linkers, in order; H or OH if unused. Where a SMILES comes first, the peptide text is derived from it. Bridges are numbered along the chain shown (N, C = ends). [ ]: non-standard residue; d: D form. The star is where a group is joined. hTyr(3S-OH,4S-OH,3'-OSO3H) = N[C@H](C(=O)O)[C@H](O)[C@@H](O)c1ccc(O)c(OS(=O)(=O)O)c1; Orn(4R-OH,5R-OH) = O=C([C@H](C[C@@H](O)[C@@H](O)N[*:3])N[*:1])[*:2]; Pro(3S-OH,4S-Me) = C[C@H]1CN[C@H](C(=O)O)[C@H]1O; X1 = CCCCCOc1ccc(-c2cc(-c3ccc(C(=O)*)cc3)no2)cc1; Gln(3R-OH) = NC(=O)C[C@@H](O)[C@H](N)C(=O)O; Hyp = O=C(O)[C@@H]1C[C@@H](O)CN1
Measure Name: MIC90

OC(Cn1cncn1)(Cn1cncn1)c1ccc(F)cc1F [FLUCONAZOLE]; > 64 µg/mL
CC[C@H](C)C[C@H](C)CCCCCCCCC(=O)N[C@H]1C[C@@H](O)[C@@H](NCCN)NC(=O)[C@@H]2[C@@H](O)CCN2C(=O)[C@H]([C@H](O)CCN)NC(=O)[C@H]([C@H](O)[C@@H](O)c2ccc(O)cc2)NC(=O)[C@@H]2C[C@@H](O)CN2C(=O)[C@H]([C@@H](C)O)NC1=O [CASPOFUNGIN]; > 16 µg/mL
CCCCCOc1ccc(-c2cc(-c3ccc(C(=O)N[C@H]4C[C@@H](O)[C@@H](O)NC(=O)[C@@H]5[C@@H](O)[C@@H](C)CN5C(=O)[C@H]([C@H](O)CC(N)=O)NC(=O)[C@H]([C@H](O)[C@@H](O)c5ccc(O)c(OS(=O)(=O)O)c5)NC(=O)[C@@H]5C[C@@H](O)CN5C(=O)[C@H]([C@@H](C)O)NC4=O)cc3)no2)cc1 [MICAFUNGIN] (X1-[Orn(4R-OH,5R-OH)]T[Hyp][hTyr(3S-OH,4S-OH,3'-OSO3H)][Gln(3R-OH)][Pro(3S-OH,4S-Me)]; lactam 1-C); > 16 µg/mL

Please examine the following record next.
Endpoint output: MIC90 of C[C@@H](c1ncncc1F)[C@](O)(Cn1cncn1)c1ccc(F)cc1F [VORICONAZOLE] . Value?
> 8 µg/mL

* * *

Test system: Aspergillus versicolor
Test: Antimicrobial activity against Aspergillus versicolor by broth microdilution method
Assay type: functional
Measure Name: MIC50
Units required after the number.

CCC(C)n1ncn(-c2ccc(N3CCN(c4ccc(OCC5COC(Cn6cncn6)(c6ccc(Cl)cc6Cl)O5)cc4)CC3)cc2)c1=O (configuration not stated); 0.5 µg/mL

Please examine the following record next.
Endpoint output: MIC50 of C[C@@H]1[C@H](O)[C@@H](C)/C=C/C=C/C=C/C=C/C=C/C=C/C=C/[C@H](O[C@@H]2O[C@H](C)[C@@H](O)[C@H](N)[C@@H]2O)C[C@@H]2O[C@](O)(C[C@@H](O)C[C@@H](O)[C@H](O)CC[C@@H](O)C[C@@H](O)CC(=O)O[C@H]1C)C[C@H](O)[C@H]2C(=O)O . Value?
1 µg/mL
